experimental.target: recombinant human soluble COMT (S-COMT) (Homo sapiens, UniProt P21964)
Construct: made in house
Sequence (P21964 51-271): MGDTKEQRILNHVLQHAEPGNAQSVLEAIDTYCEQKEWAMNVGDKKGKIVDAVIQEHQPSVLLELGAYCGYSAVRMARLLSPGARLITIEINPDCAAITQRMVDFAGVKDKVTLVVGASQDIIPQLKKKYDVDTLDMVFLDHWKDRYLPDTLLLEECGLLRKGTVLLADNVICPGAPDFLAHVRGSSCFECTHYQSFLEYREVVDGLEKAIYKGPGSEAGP
experiment.notes: Methylation kinetics with recombinant human soluble COMT
Type: in vitro ADME
settings: intrinsic clearance (Vmax/Km)
Reported Clint values for a set of compounds
Only the number, expressed in µL/min/mg, is required.

Some solved cases for reference:
>  <compound>
O=c1ccc2ccc(O)c(O)c2o1 [daphnetin, 7,8-dihydroxycoumarin]

>  <Clint, µL/min/mg>
169.5

$$$$
>  <compound>
O=c1cc(-c2ccccc2)c2ccc(O)c(O)c2o1

>  <Clint, µL/min/mg>
424.0

$$$$

Ask: # get_value(readout='Clint', item= O=C(O)Cc1cc(=O)oc2c(O)c(O)ccc12 )
Reply: 31.1

Ask: And Cc1cc(=O)oc2c(O)c(O)ccc12 ?
Reply: 154.8

###

Reported Clint values for a set of compounds
experimental.target: COMT in HLC (Homo sapiens, UniProt P21964)
Construct: Pooled human liver cytosol (HLC) from seven male donors; tissue Research Institute for Liver Diseases (Shanghai, China) Lot; QROX; host or cells: pooled human liver cytosol, seven male donors
Sequence (P21964 51-271): as above
experiment.notes: Methylation kinetics in pooled human liver cytosol (HLC)
Assay type: in vitro ADME
settings: HLC; intrinsic clearance (Vmax/Km)
Only the number, expressed in µL/min/mg, is required.

Some solved cases for reference:
>  <compound>
O=c1ccc2ccc(O)c(O)c2o1 [daphnetin, 7,8-dihydroxycoumarin]

>  <Clint (µL/min/mg)>
0.52

$$$$
>  <compound>
Cc1cc(=O)oc2c(O)c(O)ccc12

>  <Clint (µL/min/mg)>
0.70

$$$$
>  <compound>
O=C(O)Cc1cc(=O)oc2c(O)c(O)ccc12

>  <Clint (µL/min/mg)>
0.017

$$$$

Ask: # get_value(readout='Clint', item= O=c1cc(-c2ccccc2)c2ccc(O)c(O)c2o1 )
Reply: 1.91
